- RUN_DESCRIPTION: soluble fraction after stress (log2 fold change); higher = more stays soluble; pooled small domains, quantitative proteomics
- MEASUREMENT_CONDITIONS: stress: 50 degC
Grouping rule (soluble fraction (log2)): c1 = under -0.6, c2 = from -0.6 up to -0.009, c3 = -0.009 and over

HMTFENMFIENSGETLDREFLVENLRGISWQSYDRSVDVLVSRLRGKLGETPNNTRFIKTIHGVGYKFIGE; c2

Request: Which category does the recorded soluble fraction (log2) put `HMGQAELPYSEFLREVNNGQVKSVIIEGSEITGFYKTSGTSFNVIAPDDPKLVERLMAQGVEVRAQPA` in?
Response: c3

Request: Which category does the recorded soluble fraction (log2) put `HMGRLPMNIVRAIVEHLDRHASYSEINRATGASKGFISKVAAAVEAASLTPEKFLLLNDEDIQNRITPGR` in?
Response: c2

Request: Which category does the recorded soluble fraction (log2) put `HMEISPGDVFKQLPGIGDDLSRRVVESLGIQSLEELESAAHDGRLEQVEGFGERRVQMVRAVLTGMLS` in?
Response: c2

Request: Which category does the recorded soluble fraction (log2) put `HMYLHSEFSPVTGQELHMKYDDSSTEEDPVMLVEGKDIQGNDFVKKIHLNDVDPENATPAEMTALRVHL` in?
Response: c2

Request: Which category does the recorded soluble fraction (log2) put `HMDEFHLSERERQILNLLVLGHTYKHIASDLNIAYATVNKHVSNVYAKLRVQSASEAVALAIRKGL` in?
Response: c1

Request: Which category does the recorded soluble fraction (log2) put `HMRKDYTVLYSAVNAEEATEIVSKLQESGVAYQYKDNGDVLVDKKQVDKVRAQLAQEGYPKS` in?
Response: c3

Request: Which category does the recorded soluble fraction (log2) put `HMTALAVGDRVKMDKSATIYGTMRKFAAWVYATKLYVRGIDGNRVVVSTLKSGAITGAVDKKHLTK` in?
Response: c1

Request: Which category does the recorded soluble fraction (log2) put `HMGMNKEHFIIELKIYLKALNPKDQAIILAKYKALFDARVAEGETEEQVAKSLGKPRVIAEEILKEQGIE` in?
Response: c2

Request: Which category does the recorded soluble fraction (log2) put `HMADFYEVLGVERNASSDQIKRAYRKLARELHPDVNLDPVAQNRFKEVTEAYEVLSDPNKRSNFDRG` in?
Response: c3

Request: Which category does the recorded soluble fraction (log2) put `HMQGEVPYSQFLTEVDRGDVQSVVIEGNNISGFYKNSSTAFTVVAPDDPKLVERLMEQGVEVKARPV` in?
Response: c3

Request: Which category does the recorded soluble fraction (log2) put `HMSYSYIYNYALKVKMDISSTGGKKPYAYYYYDHSYKLAEEILSLSEETESIELQNKYDELKDFYENP` in?
Response: c1

Request: Which category does the recorded soluble fraction (log2) put `HMELSVTDRTRQIRHILKEKGRVEFTSLFEELTKPYVIVTFLSVLEMSKNNELMITQDKTFGSITLEMKG` in?
Response: c2

Request: Which category does the recorded soluble fraction (log2) put `HMQITNEGQIKLVISEVLNENQEQKKQYLSGKEQVLGYLIGKVMQKTKGKANPKLVNDLMIKELS` in?
Response: c3

Request: Which category does the recorded soluble fraction (log2) put `HMRPYAYGTGRRKSSTARVHLIPNGSGSITINGRTLDEYFGLETLKLIVRQPLAATETAEKFDVEATVV` in?
Response: c2
